Hey, just so you know, these numbers are from patent US8987445B2.

biological target: human TRPM8 (Homo sapiens (Human), UniProt Q7Z2W7); assay: TRPM8 inhibition assay (menthol-induced calcium influx, FDSS); settings: HEK293 cells stably expressing human TRPM8; 100 μM menthol; Fura-2AM Ca2+ signal; read-out: TRPM8 Blocking Test (IC50)
Sequence (Q7Z2W7 whole entry): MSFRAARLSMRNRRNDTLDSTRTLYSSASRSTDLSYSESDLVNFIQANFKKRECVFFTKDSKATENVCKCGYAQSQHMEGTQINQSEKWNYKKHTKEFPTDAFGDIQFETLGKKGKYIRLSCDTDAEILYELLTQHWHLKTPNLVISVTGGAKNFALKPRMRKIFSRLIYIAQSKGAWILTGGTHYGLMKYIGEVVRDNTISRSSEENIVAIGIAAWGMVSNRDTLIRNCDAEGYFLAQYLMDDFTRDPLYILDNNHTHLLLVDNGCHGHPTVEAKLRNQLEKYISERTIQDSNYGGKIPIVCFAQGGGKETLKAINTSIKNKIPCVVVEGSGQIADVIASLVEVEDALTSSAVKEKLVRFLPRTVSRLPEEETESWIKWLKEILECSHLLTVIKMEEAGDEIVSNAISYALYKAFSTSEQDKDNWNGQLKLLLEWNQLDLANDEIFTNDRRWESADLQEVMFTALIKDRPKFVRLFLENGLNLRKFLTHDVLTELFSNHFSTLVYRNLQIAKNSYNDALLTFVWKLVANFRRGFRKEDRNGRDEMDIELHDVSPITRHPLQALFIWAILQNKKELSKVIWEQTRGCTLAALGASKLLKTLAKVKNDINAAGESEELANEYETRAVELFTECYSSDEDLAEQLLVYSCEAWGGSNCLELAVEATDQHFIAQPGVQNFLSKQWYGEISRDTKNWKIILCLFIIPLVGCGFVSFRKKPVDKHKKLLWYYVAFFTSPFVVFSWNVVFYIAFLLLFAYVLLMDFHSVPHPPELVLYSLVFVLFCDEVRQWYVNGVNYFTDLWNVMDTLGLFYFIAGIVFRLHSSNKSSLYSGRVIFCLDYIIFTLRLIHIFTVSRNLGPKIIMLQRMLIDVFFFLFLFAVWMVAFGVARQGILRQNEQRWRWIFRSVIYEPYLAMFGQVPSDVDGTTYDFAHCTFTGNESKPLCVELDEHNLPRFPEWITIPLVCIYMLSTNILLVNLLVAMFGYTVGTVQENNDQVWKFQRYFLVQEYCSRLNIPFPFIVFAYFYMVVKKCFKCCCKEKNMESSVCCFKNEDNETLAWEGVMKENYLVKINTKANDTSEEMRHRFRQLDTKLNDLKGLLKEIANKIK
readout: IC50 (nM)

CCOC(C)(c1ccc(CN(c2ncc3ccccc3c2C)S(=O)(=O)c2ccc(C(=O)O)cc2)cc1)C(F)(F)F (stereo not shown)	4.7
Cn1ccc2c(N(Cc3ccc(OC(F)(F)F)cc3)S(=O)(=O)c3ccc(C(=O)O)cc3)ncc(Cl)c21	987

[A] CCc1c(N(Cc2ccc(OC(F)(F)F)cc2)S(=O)(=O)c2ccc(C(=O)O)cc2)ncc2ccccc12
[B] Cc1c(N(Cc2cccc3ccccc23)S(=O)(=O)c2ccc(C(=O)O)cc2)ncc2ccccc12
[C] O=C(O)c1ccc(S(=O)(=O)N(Cc2ccc(OC(F)(F)F)cc2)c2nc(C3CC3)c3ccccc3c2C2CC2)cc1
[D] Cc1c(N(Cc2ccc(F)c(C(F)(F)F)c2)S(=O)(=O)c2ccc(C(=O)O)cc2)nc(C2CC2)c2ccccc12
Query: Output the entries ranked by IC50 from maximum down to minimum. Present the labels in the sequence the task asks for.
Result: B, C, A, D
